These data points were gathered from PubChem BioAssay.

Measured aptamer binding inhibition, listed per entry for reference.
- system: Beta-adrenergic receptor kinase 1 (Homo sapiens) (UniProt P25098)
- Sequence (P25098 whole entry, looked up): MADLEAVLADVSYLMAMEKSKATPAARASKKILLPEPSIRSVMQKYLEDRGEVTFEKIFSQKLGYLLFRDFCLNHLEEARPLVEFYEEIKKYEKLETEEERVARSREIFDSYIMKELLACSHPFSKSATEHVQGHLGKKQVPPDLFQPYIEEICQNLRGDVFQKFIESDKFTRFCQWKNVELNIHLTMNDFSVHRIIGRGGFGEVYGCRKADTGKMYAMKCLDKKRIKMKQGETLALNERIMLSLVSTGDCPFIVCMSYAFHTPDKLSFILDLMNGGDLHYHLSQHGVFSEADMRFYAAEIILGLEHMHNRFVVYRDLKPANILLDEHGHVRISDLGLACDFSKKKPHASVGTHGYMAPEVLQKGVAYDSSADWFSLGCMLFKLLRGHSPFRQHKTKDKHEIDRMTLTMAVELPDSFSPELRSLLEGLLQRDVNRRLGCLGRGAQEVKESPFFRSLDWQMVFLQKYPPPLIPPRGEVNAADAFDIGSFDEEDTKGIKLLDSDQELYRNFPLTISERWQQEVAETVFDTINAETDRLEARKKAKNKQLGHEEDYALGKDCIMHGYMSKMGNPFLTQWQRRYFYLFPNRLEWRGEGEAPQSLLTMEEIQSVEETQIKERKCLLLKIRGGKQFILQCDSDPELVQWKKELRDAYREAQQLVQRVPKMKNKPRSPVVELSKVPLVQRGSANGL
- assay.procedure: GRK2 binders displacing RNA aptamer, biochemical, validation, human GRK2, bead flow cytometry (AID 488806)
- setup.conditions: bead-bound GRK2, FAM-aptamer displacement, at 10 µM, hits give high values

compound	units	aptamer binding inhibition
CC1(C(=O)O)CCC(C(=O)NC2CCCCCC2)C1(C)C (stereo not given)	%	3
Cc1cccc(C)c1NS(=O)(=O)c1ccc(NC(=O)c2ccc(Cl)c([N+](=O)[O-])c2)cc1	%	0
CN1CCN(C2=Nc3cc(Cl)ccc3Nc3ccccc32)CC1	%	-4
COc1ccc2nc(Nc3nc(CSc4ccc(C)cc4)cc(=O)[nH]3)nc(C)c2c1	%	0
O=C(OCCN1CCCC1)C1(c2ccccc2)CCCC1	%	1
COc1cccc(OC)c1C(=O)NCCSC1CCCCC1	%	1
CCc1ccc(/C=C2\SC(=S)N(CCC(=O)N3CCN(C)CC3)C2=O)cc1	%	-1
COc1ccccc1-c1c(C(F)(F)F)oc2cc(OC(=O)c3ccc([N+](=O)[O-])cc3)ccc2c1=O	%	2
CN(C)CCN(Cc1cccs1)c1ccccn1	%	2
CN(C)c1nc(N(C)C)nc(N(C)C)n1	%	0
CCc1cc(=O)oc2cc(OCC=C(C)C)ccc12	%	6
O=c1oc2c(CN3CCN(CCO)CC3)c(O)ccc2cc1-c1ccccn1	%	-1
CCNC(=O)c1sc2cc(C)ccc2c1Cl	%	-2
Cc1ncc([N+](=O)[O-])n1CC(O)CCl (stereo not given)	%	4
COc1ccc(CCN(C)CCCC(C#N)(c2ccc(OC)c(OC)c2)C(C)C)cc1OC (stereo not given)	%	-1
C#C[C@]1(O)CC[C@H]2[C@@H]3CCC4=C(CCC(=O)C4)[C@H]3CC[C@@]21C	%	2
CC(=O)Nc1nc(CCC(C)C)cc2c1c(=O)oc1ccccc12	%	0
Nc1ccc(N=Nc2ccccc2)c(N)n1	%	3
O=C(CCCCCCCC(=O)c1ccccc1)c1ccccc1	%	7
C=CCc1ccccc1OCC(O)CNC(C)C (stereo not given)	%	-32
CN(C)CCCN1c2ccccc2CCc2ccc(Cl)cc21	%	-3
CC(C)NC(=O)C1(c2ccccc2)CCOCC1	%	4
C=C(CC)C(=O)c1ccc(OCC(=O)O)c(Cl)c1Cl	%	2
Cc1ccc2[nH]c3c(c2c1)CN(C(=O)CN1CCSCC1)CC3	%	0
C=CCc1cccc2cc(C(=O)Nc3ccc(CC(=O)O)cc3)c(=O)oc12	%	2
